# Test system: 565232-114-T-J1-PDC complex spheroid viability
# PROTOCOL TEXT: Anticancer human tumor 565232-114-T-J1-PDC patient-derived bladder carcinoma cell line growth inhibition [CLK]
# EXPERIMENTAL PARAMETERS: second compound 3.16 µM; first compound 0.1 µM; stronger effect = lower value
READOUT NAME: viability, T/C (%)
Give bare numbers, in %.

As a guide, the following entries are already answered.
| COMPOUND | READOUT NAME | ASSAY RESULT |
| --- | --- | --- |
| CCc1c2c(nc3ccc(O)cc13)-c1cc3c(c(=O)n1C2)COC(=O)[C@]3(O)CC + CNC(=O)c1ccc(Nc2nc(OC3CCCC3)c3c(-c4ccc5nc(C)oc5c4)c[nH]c3n2)c(OC)c1 | viability, T/C | 2.4 |
| C=CC(=O)N1CCN(c2nc(=O)n(-c3c(C)ccnc3C(C)C)c3nc(-c4c(O)cccc4F)c(F)cc23)C(C)C1 (stereo not drawn) + CNC(=O)c1ccc(Nc2nc(OC3CCCC3)c3c(-c4ccc5nc(C)oc5c4)c[nH]c3n2)c(OC)c1 | viability, T/C | 19.8 |

stdin: Need viability, T/C, item COC1C=CCC(C)C(C)S(=O)(=O)NC(=O)c2ccc3c(c2)N(CC2CCC21)CC1(CCCc2cc(Cl)ccc21)CO3 (stereo not drawn) + CNC(=O)c1ccc(Nc2nc(OC3CCCC3)c3c(-c4ccc5nc(C)oc5c4)c[nH]c3n2)c(OC)c1
stdout: 11

====

# System: 565232-114-T-J1-PDC complex spheroid viability
# PROTOCOL TEXT: Anticancer human tumor 565232-114-T-J1-PDC cell line growth inhibition [CLK]; active = viability on the fitted dose curve at most 10% of control; inactive = the rest;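 also: spheroids exposed to compounds for 7 days before readout; 100% = DMSO vehicle wells with luminescence normalized to vehicle control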
# EXPERIMENTAL PARAMETERS: second compound 3.16 µM; first compound 0.316 µM
Your response should consist of one outcome taken from active, inactive

| MOLECULE | SYSTEM | CLASS NAME |
| --- | --- | --- |
| CC1(C)CCC(CN2CCN(c3ccc(C(=O)NS(=O)(=O)c4ccc(NCC5CCOCC5)c([N+](=O)[O-])c4)c(Oc4cnc5[nH]ccc5c4)c3)CC2)=C(c2ccc(Cl)cc2)C1 + CNC(=O)c1ccc(Nc2nc(OC3CCCC3)c3c(-c4ccc5nc(C)oc5c4)c[nH]c3n2)c(OC)c1 | 565232-114-T-J1-PDC complex spheroid viability | inactive |

stdin: State the result this test recorded for CC(=O)O[C@H]1C(=O)[C@@]2(C)[C@H]([C@H](OC(=O)c3ccccc3)[C@]3(O)C[C@H](OC(=O)[C@H](O)[C@@H](NC(=O)c4ccccc4)c4ccccc4)C(C)=C1C3(C)C)[C@]1(OC(C)=O)CO[C@@H]1C[C@@H]2O + CN1CCN(c2cc(C(=O)Nc3cc4cc(-c5cnn(C)c5)ccc4cn3)ccn2)CC1 .
stdout: active

====

# System: 565232-114-T-J1-PDC complex spheroid viability
# PROTOCOL TEXT: Anticancer human tumor 565232-114-T-J1-PDC cell line growth inhibition [CLK];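 also: spheroids exposed to compounds for 7 days before readout; 100% = DMSO vehicle wells with luminescence normalized to vehicle control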
# EXPERIMENTAL PARAMETERS: second compound 3.16 µM; first compound 0.00316 µM; stronger effect = lower value
READOUT NAME: viability, T/C (%)
One number for each entry, in %.

Field: viability, T/C. Fill in for each record below.
1. CCN1CCN(Cc2ccc(Nc3ncc(F)c(-c4cc(F)c5nc(C)n(C(C)C)c5c4)n3)nc2)CC1 + CNC(=O)c1ccc(Nc2nc(OC3CCCC3)c3c(-c4ccc5nc(C)oc5c4)c[nH]c3n2)c(OC)c1
2. Cn1ncnc1[C@H]1c2n[nH]c(=O)c3cc(F)cc(c23)N[C@@H]1c1ccc(F)cc1 + CNC(=O)c1ccc(Nc2nc(OC3CCCC3)c3c(-c4ccc5nc(C)oc5c4)c[nH]c3n2)c(OC)c1

stdout:
1: 18.1; 2: 18.7
